Answer each item with its documented inhibition.
system.under.test: Maternal embryonic leucine zipper kinase (Homo sapiens);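 further: reported figure is the mean percent inhibition of MELK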
reported.conditions: at 0.1 µM
Numbers only here, please. The scale is %.

Task: Please give the measured inhibition for this compound: CS(=O)(=O)CCNCc1ccc(-c2ccc3ncnc(Nc4ccc(OCc5ccccc5)c(Cl)c4)c3c2)o1
Output: 2.31

Task: Subsequent entry: CNC(=O)c1cncc(/C=C/c2c(Cl)cccc2Cl)c1
Output: 6.04

Task: Follow-up item: NC(=O)c1cccc(Nc2nccc(Nc3cccc4[nH]ncc34)n2)c1
Output: -1.78

Task: Next compound up: N#Cc1c(NC(=O)c2cccc3ccccc23)sc2c1CCCC2
Output: 4.2

Task: Another compound: CCn1c(-c2nonc2N)nc2cnc(Oc3cccc(NC(=O)c4ccc(OCCN5CCOCC5)cc4)c3)cc21
Output: 10.4

Task: Then what about the compound CCn1c(-c2nonc2N)nc2c(C#CC(C)(C)O)nc(CN3CCCC3)cc21 ?
Output: 1.68

Task: Moving on to the next compound: Fc1cccc(COc2ccc(Nc3ncnc4sc(-c5cccs5)cc34)cc2Cl)c1
Output: 2.25

Task: Record: Cc1nnc(-c2ccc(C)c(-c3ccc(C(=O)Nc4cccc(C#N)c4)cc3)c2)o1
Output: -0.46

Task: Field entry: COc1ccccc1Nc1ncc(-c2ccccc2)o1
Output: 4.62

Task: Now the same for COc1cc2ncn(-c3cc(O[C@@H](C)c4ccccc4Cl)c(C(N)=O)s3)c2cc1OC
Output: 4.41

Task: // same read-out, input: COc1cc(C=NNc2ncnc3c2cnn3-c2ccccc2)ccc1O
Output: 6.74

Task: Do the same for CC1=C(C(=O)Nc2ccc3[nH]ncc3c2)C(c2ccc3ccccc3c2)CC(=O)N1 (configuration not stated) please
Output: 3.7

Task: # repeat for [O-][S+]1CCN(Cc2ccc(-c3ccc4ncnc(Nc5ccc(OCc6ccccc6)c(F)c5)c4c3)o2)CC1
Output: 2.88

Task: Lookup CS(=O)(=O)CCN(CC#N)Cc1ccc(-c2ccc3ncnc(Nc4ccc(OCc5cccc(F)c5)c(Cl)c4)c3c2)o1
Output: 3.85

Task: Entry to check: CS(=O)(=O)CCNCc1ccc(-c2ccc3ncnc(Nc4ccc(OCc5cccc(F)c5)c(C(F)(F)F)c4)c3c2)o1
Output: 4.21

Task: Entry COc1cccc(-n2ncc3c(N/N=C/c4cccc(F)c4)ncnc32)c1 please
Output: 4.24

Task: Another: CN1CCC(C(=O)Nc2n[nH]c3nnc(-c4ccccc4)cc23)CC1
Output: 3.21

Task: What do you get for COc1ccc2cc(-c3c(-c4ccncc4)nc(-c4ccc([S+](C)[O-])cc4)n3C)ccc2c1 (configuration not stated) ?
Output: 2.76

Task: Can you check CCc1cccc(NC(=O)Nc2ccc(Oc3ccc4nc(NC(=O)OC)[nH]c4c3)cc2)c1 next?
Output: -0.95

Task: Then what about the compound CCn1c(-c2nonc2N)nc2cncc(C(=O)N3CC[C@H](N)C3)c21 ?
Output: 14.8

Task: Also NCc1ccc(-c2nc(-c3ccc(Cl)c(O)c3)c(-c3ccncc3)[nH]2)cc1 ?
Output: 0.75

Task: Same read-out for COC(=O)Nc1nc2cc(Oc3cccc(NC(=O)Nc4cc(C(F)(F)F)ccc4F)c3)ccc2[nH]1 ?
Output: -0.49

Hey, just so you know, these numbers are from ChEMBL document CHEMBL1961873.
